methodDescription: Intrinsic clearance in mouse hepatocytes
Assay type: in vitro ADME
endpoint: CLint scaled (mL/min/kg)
Give a bare numeral; the unit mL/min/kg is implied.

Exercise: What value of measured CLint scaled is listed for Cc1cc([C@@H](C)Nc2ccccc2C(=O)O)c2nc(N3CCC(F)(F)CC3)c(C#N)c(=O)n2c1 ?
Key: 304

----------
methodDescription: Mouse pharmacokinetics
Type: in vivo, CD-1 Mouse
details: female, CD-1, mouse, plasma, iv, 3 mg/kg
endpoint: clearance (mL/min/kg)
Write down the numeric answer in mL/min/kg and omit the unit.

Exercise: Give its clearance value. Item: Cc1cc([C@@H](C)Nc2ccccc2C(=O)O)c2nc(N3CCC(F)(F)CC3)c(C#N)c(=O)n2c1
Key: 180

Values were extracted from paper PMC10983000.
